Recorded values, source patent US20220106391A1.

measuredOn: T1, canine beta-NGF (cNGF) (canine, UniProt Q29074 110-229 (pig entry))
T1 construct: also called canine NGF; can NGF
T1 chain: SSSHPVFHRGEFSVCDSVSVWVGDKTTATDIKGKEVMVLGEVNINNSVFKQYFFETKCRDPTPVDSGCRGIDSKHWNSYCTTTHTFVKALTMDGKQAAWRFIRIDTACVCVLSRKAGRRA
measurementProtocol: SPR (Biacore), cNGF binding

binder	unitsText	koff
182m70 (antibody, V domains shown, 51 except in CDR2 (TSSLHG); 51 (CDR2 Pos. 1-6 = residues 51-56); also called Can-182-m70) VH: EVQLVESGGDLARPGGSLKLSCVVSGFTLTQYGINWVRQAPGKGLQWVTVIWATGATDYNSALKSRFTVSRDNAMNTVYLQMNSLRVEDTAVYYCARDGWWYATSWYFDVWGQGTLVTVSS VL: DIVMTQTPLSLSVSPGEPASISCKASQDINHYLNWFRQKPDGTVKLLIYYTSSLHGGVPSRFSGSGSGTDFTLRISRVEADDAGVYYCQQGDHFPRTFGQGT	s⁻¹	9.46e-06
182m114 (antibody, V domains shown, 51 except in CDR2 (TASLHQ); 51 (CDR2 Pos. 1-6 = residues 51-56); also called Can-182-m114) VH: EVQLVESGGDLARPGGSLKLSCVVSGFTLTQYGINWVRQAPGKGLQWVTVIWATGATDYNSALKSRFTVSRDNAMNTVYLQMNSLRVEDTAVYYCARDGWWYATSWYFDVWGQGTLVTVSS VL: DIVMTQTPLSLSVSPGEPASISCKASQDINHYLNWFRQKPDGTVKLLIYYTASLHQGVPSRFSGSGSGTDFTLRISRVEADDAGVYYCQQGDHFPRTFGQGT	s⁻¹	1.27e-06
182m43 (antibody, V domains shown, 51 except in CDR2 (THSLHN); 51 as printed; also called Can-182-m43) VH: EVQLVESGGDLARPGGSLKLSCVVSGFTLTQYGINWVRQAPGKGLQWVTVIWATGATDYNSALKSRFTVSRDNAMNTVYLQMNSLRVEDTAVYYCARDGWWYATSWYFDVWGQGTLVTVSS VL: DIVMTQTPLSLSVSPGEPASISCKASQDINHYLNWFRQKPDGTVKLLIYYTHSLHNGVPSRFSGSGSGTDFTLRISRVEADDAGVYYCQQGDHFPRTFGQGT	s⁻¹	3.32e-06
182m75 (antibody, V domains shown, 51 except in CDR2 (TSSLHV); 51 (CDR2 Pos. 1-6 = residues 51-56); also called Can-182-m75) VH: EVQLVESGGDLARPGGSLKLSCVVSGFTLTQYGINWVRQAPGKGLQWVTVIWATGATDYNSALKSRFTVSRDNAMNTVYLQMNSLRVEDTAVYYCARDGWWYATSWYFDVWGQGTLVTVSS VL: DIVMTQTPLSLSVSPGEPASISCKASQDINHYLNWFRQKPDGTVKLLIYYTSSLHVGVPSRFSGSGSGTDFTLRISRVEADDAGVYYCQQGDHFPRTFGQGT	s⁻¹	8.99e-07
182m72 (antibody, V domains shown, 51 except in CDR2 (TSSLHQ); 51 (CDR2 Pos. 1-6 = residues 51-56); also called Can-182-m72) VH: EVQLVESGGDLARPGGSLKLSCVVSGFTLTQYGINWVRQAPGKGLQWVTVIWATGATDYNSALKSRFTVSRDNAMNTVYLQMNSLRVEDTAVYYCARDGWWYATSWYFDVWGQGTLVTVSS VL: DIVMTQTPLSLSVSPGEPASISCKASQDINHYLNWFRQKPDGTVKLLIYYTSSLHQGVPSRFSGSGSGTDFTLRISRVEADDAGVYYCQQGDHFPRTFGQGT	s⁻¹	2.79e-07
